Data origin, for the record: patent US7645759B2

Target: B2 human receptor (Homo sapiens, UniProt P30411)
Construct: expressed in transfected cells; host or cells: CHO cells
Sequence (P30411 1-391): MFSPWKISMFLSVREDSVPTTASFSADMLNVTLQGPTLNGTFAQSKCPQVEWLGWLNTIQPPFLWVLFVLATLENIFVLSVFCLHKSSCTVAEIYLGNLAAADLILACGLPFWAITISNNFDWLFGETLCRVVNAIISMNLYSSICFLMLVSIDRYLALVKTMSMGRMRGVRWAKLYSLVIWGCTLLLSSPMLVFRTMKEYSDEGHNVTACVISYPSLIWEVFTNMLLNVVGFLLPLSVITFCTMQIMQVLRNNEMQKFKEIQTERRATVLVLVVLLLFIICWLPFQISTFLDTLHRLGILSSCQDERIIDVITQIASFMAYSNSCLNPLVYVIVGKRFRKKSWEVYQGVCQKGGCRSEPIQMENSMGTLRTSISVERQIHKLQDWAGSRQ
Assay: cell-based
readout_name: Kb (nM)

These recorded examples may help you get a feel for the data.
[[record]]
compound = "Cc1cc(C)c2cccc(OCc3c(Cl)ccc(S(=O)(=O)NC4(C(=O)N5CCN(C(=O)C(CCCC[N+](C)(C)C)[N+](C)(C)C)CC5)CCCC4)c3Cl)c2n1 (stereo not shown)"
measured_result = 6.31

[[record]]
compound = "Cc1ccc2cccc(OCc3c(Cl)ccc(S(=O)(=O)NC4(C(=O)N5CCN(C(=O)C(N)CCCNC(=N)N)CC5)CCCC4)c3Cl)c2n1 (stereo not shown)"
measured_result = 3.98


(a) CCN=C(NCC)NCCCC(N)C(=O)N1CCN(C(=O)C2(NS(=O)(=O)c3ccc(Cl)c(COc4cccc5c(C)cc(C)nc45)c3Cl)CCCC2)CC1 (stereo not shown)
(b) Cc1ccc2cccc(OCc3c(Cl)ccc(S(=O)(=O)NC4(C(=O)N5CCN(C(=O)C(N)CCCCN(C)C)CC5)CCCC4)c3Cl)c2n1 (stereo not shown)
Identify the entry with the larger Kb. Options: a and b Response format: the label of the selected entry.
b
(b: 5.01 nM, a: 1 nM)

###

Molecular target: B2 human receptor (Homo sapiens)
Construct: expressed in transfected cells; host or cells: CHO cells
Assay: cell-based
Conditions: antagonistic activity; bradykinin-induced inositol production, CHO cells transfected with B2 human receptor; read-out: pA2 (converted)
Structures can show the parent of a compound that is named as a salt.
readout_name: Kb (nM)

[[record]]
molecule = "Cc1cc(C)c2cccc(OCc3c(Cl)ccc(S(=O)(=O)NC4(C(=O)N5CCN(C(=O)[C@@H](N)CCC[N+](C)(C)C)CC5)CCCC4)c3Cl)c2n1 [Example 4, dihydrochloride]"
measured_result = 0.398

[[record]]
molecule = "Cc1cc(C)c2cccc(OCc3c(Cl)ccc(S(=O)(=O)NC4(C(=O)N5CCN(C(=O)C(N)CCCCN(C)C)CC5)CCCC4)c3Cl)c2n1 (stereo not shown)"
measured_result = 1


(1) Cc1cc(C)c2cccc(OCc3c(Cl)ccc(S(=O)(=O)NC4(C(=O)N5CCN(C(=O)C(N)CCCCN)CC5)CCCC4)c3Cl)c2n1 (stereo not shown)
(2) Cc1ccc2cccc(OCc3c(Cl)ccc(S(=O)(=O)NC4(C(=O)N5CCN(C(=O)[C@@H](N)CCC[N+](C)(C)C)CC5)CCOCC4)c3Cl)c2n1 [Example 2, hydrochloride]
Decide: 1 or 2 , by lowest recorded Kb. Indicate your choice by writing its label.
2

###

Target: B2 human receptor (Homo sapiens, UniProt P30411)
Construct: expressed in transfected cells; host or cells: CHO cells
Assay: Binding to the human B2 receptor expressed in CHO cells
Settings: human B2 receptor expressed in CHO cells; read-out: pKi (converted)
Where a name gives a salt, the structure may show the parent alone.
readout_name: Ki (nM)

[[record]]
compound = "Cc1cc(C)c2cccc(OCc3c(Cl)ccc(S(=O)(=O)NC4(C(=O)N5CCN(C(=O)[C@@H](N)CCC[N+](C)(C)C)CC5)CCCC4)c3Cl)c2n1 [Example 4, dihydrochloride]"
readout_name = "Ki"
measured_result = 0.0794


(I) Cc1cc(C)c2cccc(OCc3c(Cl)ccc(S(=O)(=O)NC4(C(=O)N5CCN(C(=O)C(N)CCCCN(C)C)CC5)CCCC4)c3Cl)c2n1 (stereo not shown)
(II) Cc1cc(C)c2cccc(OCc3c(Cl)ccc(S(=O)(=O)NC4(C(=O)N5CCN(C(=O)C(N)CCCCN)CC5)CCCC4)c3Cl)c2n1 (stereo not shown)
(III) Cc1ccc2cccc(OCc3c(Cl)ccc(S(=O)(=O)NC4(C(=O)N5CCN(C(=O)[C@@H](N)CCC[N+](C)(C)C)CC5)CCOCC4)c3Cl)c2n1 [Example 2, hydrochloride]
Provide the items ranked by increasing Ki. Answer by writing out the labels in the requested order.
III, II, I

###

Tested on: BK-induced bronchospasm
Test: Inhibition of BK-induced bronchospasm in the guinea pig
Type: in vivo
Conditions: Cavia porcellus, inhaled or nasal, 3.5 h, intratracheal dose which inhibited by 80% bronchial constriction for at least 210 min, read-out: it Dose
readout_name: ED80 (µmol/kg)
Response body: numeric value in µmol/kg, unit text excluded.

[[record]]
molecule = "Cc1ccc2cccc(OCc3c(Cl)ccc(S(=O)(=O)NC4(C(=O)N5CCN(C(=O)C(N)CCCCN(C)C)CC5)CCCC4)c3Cl)c2n1 (stereo not drawn)"
measured_result = 0.3

[[record]]
molecule = "Cc1cc(C)c2cccc(OCc3c(Cl)ccc(S(=O)(=O)NC4(C(=O)N5CCN(C(=O)C(N)CCCCN)CC5)CCCC4)c3Cl)c2n1 (stereo not drawn)"
measured_result = 0.3


Okay, next one:
Report ED80 under test system BK-induced bronchospasm for CCN=C(NCC)NCCCC(N)C(=O)N1CCN(C(=O)C2(NS(=O)(=O)c3ccc(Cl)c(COc4cccc5c(C)cc(C)nc45)c3Cl)CCCC2)CC1 (stereo not drawn) .
0.3

###

Molecular target: B2 human receptor (Homo sapiens)
Construct: expressed in transfected cells; host or cells: CHO cells
Test: Binding to the human B2 receptor expressed in CHO cells
pKi: −log10 of the molar value.
readout_name: pKi

[[record]]
molecule = "Cc1ccc2cccc(OCc3c(Cl)ccc(S(=O)(=O)NC4(C(=O)N5CCN(C(=O)C(N)CCCNC(=N)N)CC5)CCCC4)c3Cl)c2n1 (stereo not drawn)"
readout_name = "pKi"
measured_result = 8.70


(A) Cc1cc(C)c2cccc(OCc3c(Cl)ccc(S(=O)(=O)NC4(C(=O)N5CCN(C(=O)C(CCCC[N+](C)(C)C)[N+](C)(C)C)CC5)CCCC4)c3Cl)c2n1 (stereo not drawn)
(B) Cc1ccc2cccc(OCc3c(Cl)ccc(S(=O)(=O)NC4(C(=O)N5CCN(C(=O)C(N)CCCCN(C)C)CC5)CCCC4)c3Cl)c2n1 (stereo not drawn)
Response body: label of entry with the larger pKi; valid values A , B . Answer with the label corresponding to your selection.
A

###

System: BK-induced bronchospasm
Experiment: Inhibition of BK-induced bronchospasm in the guinea pig
Assay type: in vivo
Conditions: Cavia porcellus, inhaled or nasal, 3.5 h, intratracheal dose which inhibited by 80% bronchial constriction for at least 210 min, read-out: it Dose
Structures can show the parent of a compound that is named as a salt.
Item-by-item account of ED80
Return type: number; implicit unit µmol/kg.

The following compounds have reported results that may help.
[[record]]
compound = "Cc1cc(C)c2cccc(OCc3c(Cl)ccc(S(=O)(=O)NC4(C(=O)N5CCN(C(=O)[C@@H](N)CCC[N+](C)(C)C)CC5)CCOCC4)c3Cl)c2n1.Cl.Cl.[Cl-] [Example 1, dihydrochloride]"
target_or_test_system = "BK-induced bronchospasm"
measured_result = 0.03

[[record]]
compound = "Cc1cc(C)c2cccc(OCc3c(Cl)ccc(S(=O)(=O)NC4(C(=O)N5CCN(C(=O)[C@@H](N)CCC[N+](C)(C)C)CC5)CCCC4)c3Cl)c2n1 [Example 4, dihydrochloride]"
target_or_test_system = "BK-induced bronchospasm"
measured_result = 0.1


// Input: Cc1cc(C)c2cccc(OCc3c(Cl)ccc(S(=O)(=O)NC4(C(=O)N5CCN(C(=O)C(N)CCCCN(C)C)CC5)CCCC4)c3Cl)c2n1 (centres unmarked) . Output its ED80 only.
0.3

Identify the reported ED80 for the following entry. Cc1ccc2cccc(OCc3c(Cl)ccc(S(=O)(=O)NC4(C(=O)N5CCN(C(=O)[C@@H](N)CCC[N+](C)(C)C)CC5)CCOCC4)c3Cl)c2n1 [Example 2, hydrochloride]
0.1

Indicate its recorded ED80; the compound in question is Cc1ccc2cccc(OCc3c(Cl)ccc(S(=O)(=O)NC4(C(=O)N5CCN(C(=O)C(N)CCCNC(=N)N)CC5)CCCC4)c3Cl)c2n1 (centres unmarked)
0.3
